study_system: ABL^T315I (Homo sapiens (Human), UniProt P00519, T315I)
assay_remarks: Biochemical kinase analysis, ABL T315I
cond: kinase inhibition assay
measurement_name: IC50 (nM)

Look over these answered cases.
Cc1ccc(C(=O)Nc2cccc(C(F)(F)F)c2)cc1C#Cc1cnc2c(Nc3cnn(C)c3)ccnn12: 12.6
Cc1ccc(NC(=O)c2cccc(C(F)(F)F)c2)cc1C#Cc1cnc2c(Nc3cnn(C)c3)ccnn12: 57.2
Cc1ccc(C(=O)Nc2ccc(CN3CCN(C)CC3)c(C(F)(F)F)c2)cc1C#Cc1cnc2c(Nc3cnn(C)c3)ccnn12: 4.28

a. Cc1ccc(C(=O)Nc2cccc(C(F)(F)F)c2)cc1C#Cc1cnc2c(Nc3cnn(C)c3)nccn12
b. COCCn1cc(Nc2nccn3c(C#Cc4cc(NC(=O)c5cccc(C(F)(F)F)c5)ccc4C)cnc23)cn1
q: Input pair: a , b . Output: entry with lower IC50. Identify your selection by its label.
a: b
(b: 6.47 nM, a: 10.1 nM)

---

Tested on: Ba/F3 parental cells
assay_remarks: Cell proliferation analysis, Ba/F3 parental
Assay type: cell-based
cond: Mus musculus, BaF3, 72 h; 3 days, CellTiter-Glo, 8 ng/ml IL-3
Quick list: IC50 per entry.
Respond numerically; units are nM and should not be typed.

Look over these answered cases.
Cc1ccc(C(=O)Nc2cccc(C(F)(F)F)c2)cc1C#Cc1cnc2c(Nc3cnn(C)c3)nccn12 [Example 2]: 945
Cc1ccc(NC(=O)c2ccnc(C(F)(F)F)c2)cc1C#Cc1cnc2c(Nc3cnn(C)c3)nccn12 [Example 3]: 1340
Cc1cn(-c2cc(C(=O)Nc3ccc(C)c(C#Cc4cnc5c(Nc6cnn(C)c6)nccn45)c3)cc(C(F)(F)F)c2)cn1 [Example 4]: 314
Cc1ccc(NC(=O)c2ccc(C)c(C(F)(F)F)c2)cc1C#Cc1cnc2c(Nc3cnn(C)c3)ccnn12 [Example 13]: 1220
Cc1ccc(NC(=O)c2cccc(C(F)(F)F)c2)cc1C#Cc1cnc2c(Nc3cnn(C)c3)nccn12 [Example 1]: 838

q: Under Ba/F3 parental cells: IC50 value of Cc1ccc(NC(=O)c2cccc(C(F)(F)F)c2)cc1C#Cc1cnc2c(Nc3cnn(C)c3)ccnn12 [Example 11] ?
a: 770

q: Under Ba/F3 parental cells: IC50 value of COCCn1cc(Nc2nccn3c(C#Cc4cc(NC(=O)c5cc(C(C)(C)C)on5)ccc4C)cnc23)cn1 [Example 10] ?
a: 2680

q: Under Ba/F3 parental cells: IC50 value of Cc1ccc(NC(=O)c2ccc(CN3CCN(C)CC3)c(C(F)(F)F)c2)cc1C#Cc1cnc2c(Nc3cnn(C)c3)nccn12 [Example 5] ?
a: 340

q: Under Ba/F3 parental cells: IC50 value of Cc1ccc(NC(=O)Nc2ccc(Cl)c(C(F)(F)F)c2)cc1C#Cc1cnc2c(Nc3cnn(C)c3)ccnn12 [Example 16] ?
a: 1370

---

study_system: RET^V804M (Homo sapiens (Human), UniProt P07949, V804M)
Sequence (P07949 29-1114 V804M): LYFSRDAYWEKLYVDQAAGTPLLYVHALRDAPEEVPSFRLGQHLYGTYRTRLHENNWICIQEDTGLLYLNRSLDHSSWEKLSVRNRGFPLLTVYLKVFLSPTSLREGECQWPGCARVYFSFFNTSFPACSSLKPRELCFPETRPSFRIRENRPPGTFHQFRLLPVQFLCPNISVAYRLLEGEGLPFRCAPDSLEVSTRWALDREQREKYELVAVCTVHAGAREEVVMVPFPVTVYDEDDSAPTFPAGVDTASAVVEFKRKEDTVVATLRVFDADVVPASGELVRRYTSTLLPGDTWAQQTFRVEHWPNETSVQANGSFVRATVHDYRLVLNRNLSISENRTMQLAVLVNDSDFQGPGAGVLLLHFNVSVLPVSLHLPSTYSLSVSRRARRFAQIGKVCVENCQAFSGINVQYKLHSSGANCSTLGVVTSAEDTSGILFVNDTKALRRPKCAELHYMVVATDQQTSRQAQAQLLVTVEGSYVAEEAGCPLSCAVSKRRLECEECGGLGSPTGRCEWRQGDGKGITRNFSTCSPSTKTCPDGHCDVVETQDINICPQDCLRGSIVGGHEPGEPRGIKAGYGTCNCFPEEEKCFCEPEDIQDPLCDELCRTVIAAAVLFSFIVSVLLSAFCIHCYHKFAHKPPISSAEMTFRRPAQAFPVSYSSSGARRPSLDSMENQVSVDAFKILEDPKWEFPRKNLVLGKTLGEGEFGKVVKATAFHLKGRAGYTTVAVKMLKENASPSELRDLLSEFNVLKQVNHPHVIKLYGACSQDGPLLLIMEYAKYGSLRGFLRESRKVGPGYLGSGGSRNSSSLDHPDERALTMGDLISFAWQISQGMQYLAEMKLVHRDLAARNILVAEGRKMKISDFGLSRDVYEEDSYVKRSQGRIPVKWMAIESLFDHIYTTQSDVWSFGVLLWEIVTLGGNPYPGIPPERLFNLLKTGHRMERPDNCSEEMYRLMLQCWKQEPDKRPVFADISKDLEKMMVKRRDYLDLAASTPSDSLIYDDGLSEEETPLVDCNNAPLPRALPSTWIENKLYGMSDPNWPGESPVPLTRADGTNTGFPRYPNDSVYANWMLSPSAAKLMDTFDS
assay_remarks: Biochemical kinase analysis, RET V804M
cond: kinase inhibition assay
measurement_name: IC50 (nM)

Look over these answered cases.
Cc1ccc(C(=O)Nc2ccc(CN3CCN(C)CC3)c(C(F)(F)F)c2)cc1C#Cc1cnc2c(Nc3cnn(C)c3)ccnn12 [Example 15]: 1.42
Cc1ccc(NC(=O)c2cccc(C(F)(F)F)c2)cc1C#Cc1cnc2c(Nc3cnn(C)c3)nccn12 [Example 1]: 12.2

a. Cc1ccc(NC(=O)c2ccnc(C(F)(F)F)c2)cc1C#Cc1cnc2c(Nc3cnn(C)c3)nccn12 [Example 3]
b. Cc1ccc(C(=O)Nc2cccc(C(F)(F)F)c2)cc1C#Cc1cnc2c(Nc3cnn(C)c3)ccnn12 [Example 14]
q: # returns the entry with the larger IC50; inputs a and b Identify your selection by its label.
a: a

---

study_system: ABL (Homo sapiens (Human), UniProt P00519)
measurement_name: IC50 (nM)

Look over these answered cases.
Cc1ccc(C(=O)Nc2ccc(CN3CCN(C)CC3)c(C(F)(F)F)c2)cc1C#Cc1cnc2c(Nc3cnn(C)c3)ccnn12: 3.24
Cc1ccc(NC(=O)c2ccc(CN3CCN(C)CC3)c(C(F)(F)F)c2)cc1C#Cc1cnc2c(Nc3cnn(C)c3)nccn12: 3.33

P. Cc1ccc(NC(=O)c2cccc(C(F)(F)F)c2)cc1C#Cc1cnc2c(Nc3cnn(C)c3)nccn12
Q. Cc1ccc(NC(=O)c2ccnc(C(F)(F)F)c2)cc1C#Cc1cnc2c(Nc3cnn(C)c3)ccnn12
q: Input pair: P , Q . Output: entry with lower IC50. Identify your selection by its label.
a: Q
(Q: 2.24 nM, P: 3.91 nM)

---

Record set of IC50 for target or system ABL (Homo sapiens (Human)).
measurement_name: IC50 (nM)

Look over these answered cases.
Cc1ccc(NC(=O)c2ccnc(C(F)(F)F)c2)cc1C#Cc1cnc2c(Nc3cnn(C)c3)nccn12 [Example 3]: 1.89
Cc1ccc(C(=O)Nc2cccc(C(F)(F)F)c2)cc1C#Cc1cnc2c(Nc3cnn(C)c3)ccnn12 [Example 14]: 4.91
Cc1ccc(NC(=O)c2ccc(C)c(C(F)(F)F)c2)cc1C#Cc1cnc2c(Nc3cnn(C)c3)ccnn12 [Example 13]: 9.88

I. Cc1ccc(C(=O)Nc2cccc(C(F)(F)F)c2)cc1C#Cc1cnc2c(Nc3cnn(C)c3)nccn12 [Example 2]
II. COCCn1cc(Nc2nccn3c(C#Cc4cc(NC(=O)c5ccnc(C(F)(F)F)c5)ccc4C)cnc23)cn1 [Example 9]
q: # returns the entry with the larger IC50; inputs I and II Identify your selection by its label.
a: I
(I: 6.65 nM, II: 0.93 nM)

---

Test system: BaF3 FLT3-ITD cells
assay_remarks: Cell proliferation analysis, BaF3 FLT3-ITD
Format: cell-based
cond: Ba/F3 FLT3-ITD, 72 h; 3 days, CellTiter-Glo
measurement_name: IC50 (nM)

Cc1ccc(C(=O)Nc2cccc(C(F)(F)F)c2)cc1C#Cc1cnc2c(Nc3cnn(C)c3)ccnn12 [Example 14]: 23

I. Cc1ccc(NC(=O)c2cccc(C(F)(F)F)c2)cc1C#Cc1cnc2c(Nc3cnn(C)c3)nccn12 [Example 1]
II. Cc1ccc(C(=O)Nc2cccc(C(F)(F)F)c2)cc1C#Cc1cnc2c(Nc3cnn(C)c3)nccn12 [Example 2]
III. Cc1ccc(NC(=O)c2ccnc(C(F)(F)F)c2)cc1C#Cc1cnc2c(Nc3cnn(C)c3)nccn12 [Example 3]
IV. Cc1ccc(C(=O)Nc2ccc(CN3CCN(C)CC3)c(C(F)(F)F)c2)cc1C#Cc1cnc2c(Nc3cnn(C)c3)ccnn12 [Example 15]
q: Output the entries ranked by IC50 from maximum down to minimum. Form entry: labels listed in requested order.
a: III, I, II, IV

---

Test system: Ba/F3 parental cells
assay_remarks: Cell proliferation analysis, Ba/F3 parental
Assay type: cell-based
cond: Mus musculus, BaF3, 72 h; 3 days, CellTiter-Glo, 8 ng/ml IL-3
Quick list: IC50 per entry.
Respond numerically; units are nM and should not be typed.

COCCn1cc(Nc2nccn3c(C#Cc4cc(NC(=O)c5ccnc(C(F)(F)F)c5)ccc4C)cnc23)cn1: 4280

q: So what does the record say about IC50 for Cc1ccc(NC(=O)c2ccnc(C(F)(F)F)c2)cc1C#Cc1cnc2c(Nc3cnn(C)c3)ccnn12 ?
a: 1890

q: So what does the record say about IC50 for Cc1ccc(NC(=O)Nc2ccc(Cl)c(C(F)(F)F)c2)cc1C#Cc1cnc2c(Nc3cnn(C)c3)nccn12 ?
a: 620

q: So what does the record say about IC50 for Cc1ccc(C(=O)Nc2cccc(C(F)(F)F)c2)cc1C#Cc1cnc2c(Nc3cnn(C)c3)ccnn12 ?
a: 1550

q: So what does the record say about IC50 for Cc1ccc(C(=O)Nc2ccc(CN3CCN(C)CC3)c(C(F)(F)F)c2)cc1C#Cc1cnc2c(Nc3cnn(C)c3)ccnn12 ?
a: 280

q: So what does the record say about IC50 for Cc1ccc(NC(=O)c2cc(C(C)(C)C)on2)cc1C#Cc1cnc2c(Nc3cnn(C)c3)nccn12 ?
a: 5230

q: So what does the record say about IC50 for COCCn1cc(Nc2nccn3c(C#Cc4cc(NC(=O)c5cccc(C(F)(F)F)c5)ccc4C)cnc23)cn1 ?
a: 927

---

Tested on: Ba/F3 BCR-ABL cells
assay_remarks: Cell proliferation analysis, Ba/F3 BCR-ABL
Assay type: cell-based
cond: Mus musculus, BaF3, 72 h; 3 days, CellTiter-Glo
Method: [Worded in the source for another variant; this variant is reported under the same test.] The inhibitory effect of the example compounds on Ba/F3 parental, Ba/F3 Bcr-Abl^T315I, K562, Ba/F3 KIF5B-RET, BaF3 FLT3-ITD cell activity was determined. […]
measurement_name: IC50 (nM)

Look over these answered cases.
Cc1ccc(NC(=O)c2ccnc(C(F)(F)F)c2)cc1C#Cc1cnc2c(Nc3cnn(C)c3)ccnn12 [Example 12]: 7.75
Cc1ccc(NC(=O)c2cccc(C(F)(F)F)c2)cc1C#Cc1cnc2c(Nc3cnn(C)c3)nccn12 [Example 1]: 5.63
Cc1ccc(C(=O)Nc2cccc(C(F)(F)F)c2)cc1C#Cc1cnc2c(Nc3cnn(C)c3)nccn12 [Example 2]: 5.1

I. Cc1ccc(C(=O)Nc2ccc(CN3CCN(C)CC3)c(C(F)(F)F)c2)cc1C#Cc1cnc2c(Nc3cnn(C)c3)ccnn12 [Example 15]
II. Cc1ccc(NC(=O)c2cccc(C(F)(F)F)c2)cc1C#Cc1cnc2c(Nc3cnn(C)c3)ccnn12 [Example 11]
q: # returns the entry with the larger IC50; inputs I and II Identify your selection by its label.
a: I
(I: 12.8 nM, II: 4.76 nM)

a. Cc1ccc(NC(=O)c2cc(C(C)(C)C)on2)cc1C#Cc1cnc2c(Nc3cnn(C)c3)nccn12 [Example 6]
b. Cc1ccc(NC(=O)c2ccc(C)c(C(F)(F)F)c2)cc1C#Cc1cnc2c(Nc3cnn(C)c3)ccnn12 [Example 13]
c. Cc1ccc(NC(=O)c2ccnc(C(F)(F)F)c2)cc1C#Cc1cnc2c(Nc3cnn(C)c3)nccn12 [Example 3]
d. COCCn1cc(Nc2nccn3c(C#Cc4cc(NC(=O)c5ccnc(C(F)(F)F)c5)ccc4C)cnc23)cn1 [Example 9]
q: # ascending order, key=IC50 Form entry: labels listed in requested order.
a: d, c, a, b
